# target-or-system: EGFR (Homo sapiens, UniProt P00533)
# Sequence (P00533 25-1210): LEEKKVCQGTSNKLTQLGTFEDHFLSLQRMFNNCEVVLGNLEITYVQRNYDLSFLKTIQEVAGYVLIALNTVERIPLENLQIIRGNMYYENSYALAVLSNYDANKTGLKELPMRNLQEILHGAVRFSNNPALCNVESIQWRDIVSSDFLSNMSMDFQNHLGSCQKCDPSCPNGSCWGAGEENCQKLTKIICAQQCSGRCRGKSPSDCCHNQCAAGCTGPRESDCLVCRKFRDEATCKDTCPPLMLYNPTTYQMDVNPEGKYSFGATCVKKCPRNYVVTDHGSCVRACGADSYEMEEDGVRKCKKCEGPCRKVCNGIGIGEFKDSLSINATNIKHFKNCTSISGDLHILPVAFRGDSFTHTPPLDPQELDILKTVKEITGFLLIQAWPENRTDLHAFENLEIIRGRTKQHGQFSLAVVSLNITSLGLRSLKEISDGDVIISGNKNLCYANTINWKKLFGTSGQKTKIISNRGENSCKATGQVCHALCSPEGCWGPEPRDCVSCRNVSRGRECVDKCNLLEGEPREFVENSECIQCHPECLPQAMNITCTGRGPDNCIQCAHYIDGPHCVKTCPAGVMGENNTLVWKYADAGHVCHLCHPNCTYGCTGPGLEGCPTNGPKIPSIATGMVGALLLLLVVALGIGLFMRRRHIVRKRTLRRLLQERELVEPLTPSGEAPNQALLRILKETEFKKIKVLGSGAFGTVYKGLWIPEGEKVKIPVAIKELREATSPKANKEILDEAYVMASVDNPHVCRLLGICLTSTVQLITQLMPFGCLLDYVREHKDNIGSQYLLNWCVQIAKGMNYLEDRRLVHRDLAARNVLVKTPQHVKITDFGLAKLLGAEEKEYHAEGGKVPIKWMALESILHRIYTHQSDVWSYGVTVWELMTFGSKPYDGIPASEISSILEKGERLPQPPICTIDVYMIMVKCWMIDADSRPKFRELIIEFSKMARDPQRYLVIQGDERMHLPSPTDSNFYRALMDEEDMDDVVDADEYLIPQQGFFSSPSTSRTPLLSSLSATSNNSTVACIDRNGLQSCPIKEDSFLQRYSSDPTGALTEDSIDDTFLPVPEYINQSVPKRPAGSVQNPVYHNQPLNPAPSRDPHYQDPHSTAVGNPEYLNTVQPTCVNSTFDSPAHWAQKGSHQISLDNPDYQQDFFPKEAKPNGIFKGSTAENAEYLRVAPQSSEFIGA
# method: cell-based
metric: pIC50
Quick note: pIC50 values are minus log10 of concentrations in mol/L.

Value (pIC50, EGFR (Homo sapiens, UniProt P00533)) for record Cc1cccc(Nc2ncnc3ccc(N)cc23)c1 [SMA52, 6-amino-4-[(m-tolyl)amino]quinazoline] = 5.07

----------
# Test system: A431 cells
# method: SRB growth inhibition assay in A431 cells
# Format: cell-based, human
# reported-conditions: Homo sapiens, A-431, 72 h, 72 h continuous exposure, SRB, A431; read-out: IC50 growth inhibition
metric: IC50 (µM)
Write the answer as a number in µM, unit excluded.

* CNN=Nc1ccc2ncnc(Nc3cccc(C)c3)c2c1 [SMA41] | 36

Looking up Cn1nnc2c(C(N)=O)ncn2c1=O [TEM, temozolomide, reference compound] , I found its IC50 recorded as 366

----------
# method: Degradation in serum-containing cell culture medium (UV, HPLC)
# Assay type: in vitro ADME
# reported-conditions: bovine, serum-containing cell culture medium (RPMI with 10% serum); RPMI with 10% serum, 37° C.; read-out: half-life (t1/2) by UV spectrophotometry at 340 nm
metric: half-life (min)
Write the answer as a number in min, unit excluded.

Looking up CNN=Nc1ccc2ncnc(Nc3cccc(Cl)c3)c2c1 [BJ2000] , I found its half-life recorded as 34

----------
# target-or-system: EGFR (Homo sapiens, UniProt P00533)
# method: EGF-induced EGFR autophosphorylation in A431 cells (Western blot)
pIC50: −log10 of the molar value.
metric: pIC50

Looking up CNN=Nc1ccc2ncnc(Nc3cccc(Cl)c3)c2c1 , I found its pIC50 recorded as ~5.22
